Data credit: ChEMBL document CHEMBL3046340

- EXPERIMENTAL SYSTEM: UniProtKB O42275
- Sequence (O42275 whole entry): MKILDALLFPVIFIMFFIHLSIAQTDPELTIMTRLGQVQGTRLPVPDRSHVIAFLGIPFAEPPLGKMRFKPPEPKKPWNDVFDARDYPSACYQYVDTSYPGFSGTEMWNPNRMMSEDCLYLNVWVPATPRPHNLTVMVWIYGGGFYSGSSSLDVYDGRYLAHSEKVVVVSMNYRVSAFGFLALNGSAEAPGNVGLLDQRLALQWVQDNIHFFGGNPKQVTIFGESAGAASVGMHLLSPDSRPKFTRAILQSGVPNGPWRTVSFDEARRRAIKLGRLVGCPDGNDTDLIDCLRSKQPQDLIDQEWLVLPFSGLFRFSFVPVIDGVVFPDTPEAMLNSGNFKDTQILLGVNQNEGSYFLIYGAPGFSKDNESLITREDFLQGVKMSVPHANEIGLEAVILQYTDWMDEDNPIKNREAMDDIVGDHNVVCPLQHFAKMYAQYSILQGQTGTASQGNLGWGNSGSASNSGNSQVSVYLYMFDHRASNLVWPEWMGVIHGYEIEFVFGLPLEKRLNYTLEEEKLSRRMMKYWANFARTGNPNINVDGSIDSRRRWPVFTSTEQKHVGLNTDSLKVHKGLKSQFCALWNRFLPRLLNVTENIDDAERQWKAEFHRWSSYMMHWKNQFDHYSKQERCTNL
- ASSAY NOTES: Inhibition of Electrophorus electricus (electric eel) acetylcholinesterase (AChE) using acetylthiocholine iodide as substrate preincubated for 15 min
- STATED CONDITIONS: read-out: IC50
pIC50: −log10 of the molar value.
Below, each entry is listed with its recorded pIC50.
ENDPOINT LABEL: pIC50

{"COMPOUND": "O=[N+]([O-])c1ccc(C2CC(c3ccccc3)=Nc3ccccc3S2)cc1 (configuration not stated)", "EXPERIMENTAL SYSTEM": "UniProtKB O42275", "ENDPOINT LABEL": "pIC50", "TEST RESULT": 3.99}
{"COMPOUND": "Oc1cccc(C2=Nc3ccccc3SC(c3cccc(O)c3)C2)c1 (configuration not stated)", "EXPERIMENTAL SYSTEM": "UniProtKB O42275", "ENDPOINT LABEL": "pIC50", "TEST RESULT": 4.15}
{"COMPOUND": "Oc1cccc(C2=Nc3ccccc3SC(c3ccccc3)C2)c1 (configuration not stated)", "EXPERIMENTAL SYSTEM": "UniProtKB O42275", "ENDPOINT LABEL": "pIC50", "TEST RESULT": 4.40}
{"COMPOUND": "Oc1cccc(C2=Nc3ccccc3SC(c3ccc(Cl)cc3)C2)c1 (configuration not stated)", "EXPERIMENTAL SYSTEM": "UniProtKB O42275", "ENDPOINT LABEL": "pIC50", "TEST RESULT": 4.73}
{"COMPOUND": "Oc1cccc(C2=Nc3ccccc3SC(c3cccs3)C2)c1 (configuration not stated)", "EXPERIMENTAL SYSTEM": "UniProtKB O42275", "ENDPOINT LABEL": "pIC50", "TEST RESULT": 5.23}
{"COMPOUND": "Oc1cccc(C2=Nc3ccccc3SC(c3ccccc3F)C2)c1 (configuration not stated)", "EXPERIMENTAL SYSTEM": "UniProtKB O42275", "ENDPOINT LABEL": "pIC50", "TEST RESULT": 4.15}
{"COMPOUND": "Cc1ccc(C2CC(c3cccc(O)c3)=Nc3ccccc3S2)cc1 (configuration not stated)", "EXPERIMENTAL SYSTEM": "UniProtKB O42275", "ENDPOINT LABEL": "pIC50", "TEST RESULT": 4.30}
